- system name: wt human TYK2, catalytic site (Homo sapiens, UniProt P29597)
- Construct: 2 nM wt human TYK2, catalytic site (SignalChem/CAN)
- Sequence (P29597 897-1176 limits assumed): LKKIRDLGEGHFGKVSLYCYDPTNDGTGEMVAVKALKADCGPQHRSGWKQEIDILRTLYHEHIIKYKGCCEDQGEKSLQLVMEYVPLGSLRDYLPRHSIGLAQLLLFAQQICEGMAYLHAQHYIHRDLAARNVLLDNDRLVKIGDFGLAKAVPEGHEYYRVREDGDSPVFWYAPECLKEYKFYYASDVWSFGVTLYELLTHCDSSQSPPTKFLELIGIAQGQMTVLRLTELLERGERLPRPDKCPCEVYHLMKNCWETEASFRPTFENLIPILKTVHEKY
- test: HTRF KinEASE assay, TYK2
- settings: 1 μM ATP; read-out: IC50, inhibitory activity toward TYK2
compounds and their reported IC50

Known results for compounds:
INSERT INTO results (compound, value_measured) VALUES
  ('O=[N+]([O-])c1cccc(F)c1C1=Nc2cn[nH]c2-c2ccccc2N1', '100 to 1000 nM'),
  ('CCC(C)Oc1cc2c(cc1F)-c1n[nH]cc1N=C(c1c(F)cccc1Cl)N2 (stereo not shown)', '10 to 100 nM');

query: Item under review: `Fc1ccc2c(c1)-c1n[nH]cc1NC(c1c(F)cc(OC(F)(F)F)cc1F)=N2` . Reported IC50?
result: 100 to 1000 nM

query: Report IC50 for `Cc1ccc2c(c1)-c1[nH]ncc1NC(c1c(Cl)cccc1Cl)=N2` please.
result: 100 to 1000 nM

----------
- system name: wt human TYK2, catalytic site (Homo sapiens, UniProt P29597)
- Construct: 2 nM wt human TYK2, catalytic site (SignalChem/CAN)
- test: HTRF KinEASE assay, TYK2
- settings: 1 μM ATP; read-out: IC50, inhibitory activity toward TYK2
assay endpoint: IC50

Examples with answers:
INSERT INTO assay_data (smiles_repr, value_measured) VALUES
  ('Fc1ccc(-c2ccc3c(c2)N=C(c2c(F)cccc2Cl)Nc2c[nH]nc2-3)cc1', '10 to 100 nM'),
  ('Fc1cccc(Cl)c1C1=Nc2cnc(Cl)cc2-c2n[nH]cc2N1', '10 to 100 nM');

query: Entry `Fc1ccc(Cl)c(F)c1C1=Nc2ccccc2-c2[nH]ncc2N1` has what IC50?
result: 100 to 1000 nM

query: Request the reported IC50 associated with `Fc1ccc(F)c(C2=Nc3ccccc3-c3[nH]ncc3N2)c1F`
result: 100 to 1000 nM

query: What measured IC50 goes with `Fc1cccc(F)c1C1=Nc2ncccc2-c2[nH]ncc2N1` ?
result: 100 to 1000 nM

query: Please report the recorded IC50 for `O=C(NC1CCOCC1)c1cc2c(cc1Cl)-c1n[nH]cc1N=C(c1c(F)cccc1F)N2` .
result: 100 to 1000 nM

query: // query IC50 value for entry `Fc1cccc(F)c1C1=Nc2cc(OC3CCOCC3)ccc2-c2[nH]ncc2N1`
result: 10 to 100 nM

----------
Sequence of the target: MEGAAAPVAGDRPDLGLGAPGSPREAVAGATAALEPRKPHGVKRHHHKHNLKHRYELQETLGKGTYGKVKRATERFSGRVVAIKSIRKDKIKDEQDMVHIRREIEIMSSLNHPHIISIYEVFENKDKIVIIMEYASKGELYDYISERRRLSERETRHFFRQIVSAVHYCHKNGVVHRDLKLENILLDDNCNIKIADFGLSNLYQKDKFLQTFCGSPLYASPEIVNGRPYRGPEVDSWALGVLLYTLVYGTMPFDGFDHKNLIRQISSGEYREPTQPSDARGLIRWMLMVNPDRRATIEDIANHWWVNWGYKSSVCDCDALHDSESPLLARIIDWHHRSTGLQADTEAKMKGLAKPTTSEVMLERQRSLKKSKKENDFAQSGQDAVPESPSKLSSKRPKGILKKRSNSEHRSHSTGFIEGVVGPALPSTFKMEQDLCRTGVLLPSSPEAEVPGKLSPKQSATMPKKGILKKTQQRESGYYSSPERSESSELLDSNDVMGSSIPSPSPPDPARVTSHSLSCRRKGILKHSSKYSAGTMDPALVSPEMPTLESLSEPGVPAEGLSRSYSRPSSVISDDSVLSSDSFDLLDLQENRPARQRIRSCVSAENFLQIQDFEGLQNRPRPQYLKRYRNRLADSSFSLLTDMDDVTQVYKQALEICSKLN
pIC50: −log10 of the molar value.
assay endpoint: pIC50

Use the examples below as a reference point.
INSERT INTO results (smiles_repr, assay_endpoint, value_measured) VALUES
  ('COc1cccc(F)c1C1=Nc2cn[nH]c2-c2ccccc2N1', 'pIC50', '6.00 to 7.00'),
  ('CC(=O)Nc1cccc(-c2ccc3c(c2)N=C(c2c(F)cccc2F)Nc2cn[nH]c2-3)c1', 'pIC50', '7.00 to 8.00'),
  ('Fc1ccc(-c2ccc3c(c2)N=C(c2c(F)cccc2F)Nc2c[nH]nc2-3)cc1', 'pIC50', '> 8.00');

The record that follows has no pIC50 shown yet.
query: Tell me the measured pIC50 of `Fc1cccc(F)c1C1=Nc2cn[nH]c2-c2cc3c(cc2N1)OCO3` , please.
result: 7.00 to 8.00

----------
Below are IC50 values measured for UniProtKB O60285.

In the examples that follow, each entry is paired with its recorded IC50.
INSERT INTO measurements (compound, value_measured) VALUES
  ('Cc1ccc2c(c1)-c1[nH]ncc1N=C(c1c(F)cc(F)cc1F)N2 [Compound 175]', '10 to 100 nM'),
  ('Cc1cc2c(cc1C(=O)NC1CCOCC1)N=C(c1c(F)cccc1F)Nc1cn[nH]c1-2 [Compound 157]', '100 to 1000 nM'),
  ('Fc1cccc(Cl)c1C1=Nc2c(Br)n[nH]c2-c2cccnc2N1 [Compound 88]', '10 to 100 nM'),
  ('Fc1cccc(Cl)c1C1=Nc2cc(OC3CCOCC3)ccc2-c2[nH]ncc2N1 [Compound 155]', '10 to 100 nM'),
  ('Fc1ccc2c(c1)-c1[nH]ncc1N=C(c1c(F)cccc1F)N2 [Compound 33]', '10 to 100 nM'),
  ('CCc1ccc2c(c1)-c1[nH]ncc1N=C(c1c(F)cccc1F)N2 [Compound 44]', '10 to 100 nM'),
  ('CN(C)C(=O)Oc1ccc2c(c1)-c1[nH]ncc1NC(c1c(F)cccc1F)=N2 [Compound 136]', '100 to 1000 nM'),
  ('COc1cc(F)c(C2=Nc3cn[nH]c3-c3cc(C)ccc3N2)c(F)c1 [Compound 173]', '10 to 100 nM');

query: Need IC50, item NC(=O)c1ccc2c(c1)-c1[nH]ncc1N=C(c1c(F)cccc1Cl)N2 [Compound 94]
result: 10 to 100 nM

query: Need IC50, item O=C(c1ccc2c(c1)N=C(c1c(F)cccc1Cl)Nc1cn[nH]c1-2)N1CCOCC1 [Compound 78]
result: 100 to 1000 nM

query: Return reported IC50; argument: COC(=O)Nc1ccc2c(c1)N=C(c1c(F)cccc1F)Nc1c[nH]nc1-2 [Compound 164]
result: 10 to 100 nM

query: So what does the record say about IC50 for Fc1ccc(Cl)c(F)c1C1=Nc2ccccc2-c2[nH]ncc2N1 [Compound 18] ?
result: 100 to 1000 nM

query: Find the recorded IC50 belonging to Fc1cccc(F)c1C1=Nc2ccccc2-c2[nH]nc(Cl)c2N1 [Compound 135] and report it.
result: 10 to 100 nM

query: Request the reported IC50 associated with CCc1cc(F)c2c(c1)-c1[nH]ncc1NC(c1c(F)cccc1F)=N2 [Compound 167]
result: 100 to 1000 nM

query: I would be grateful if you could share the reported IC50 for Fc1cc2c(cc1OC1CCOCC1)N=C(c1c(F)cccc1Cl)Nc1c[nH]nc1-2 [Compound 221] .
result: 100 to 1000 nM

query: Fill in the blank: the reported IC50 of O=C(Nc1ccc2c(c1)-c1n[nH]cc1NC(c1c(F)cccc1F)=N2)OCc1ccccc1 [Compound 207] is ____.
result: 10 to 100 nM

query: # IC50 lookup, item COC(=O)Nc1ccc2c(c1)-c1[nH]ncc1NC(c1c(F)cccc1F)=N2 [Compound 165]
result: < 10 nM

query: Reported IC50 for Fc1cc2c(cc1OC1CCCC1)N=C(c1c(F)cccc1Cl)Nc1c[nH]nc1-2 [Compound 245] : what is it?
result: 100 to 1000 nM

----------
- system name: wt human TYK2, catalytic site (Homo sapiens)
- Construct: 2 nM wt human TYK2, catalytic site (SignalChem/CAN)
- test: HTRF KinEASE assay, TYK2
- settings: 1 μM ATP; read-out: IC50, inhibitory activity toward TYK2
Entries and their measured IC50 follow.

Some solved entries appear below for comparison.
INSERT INTO results (smiles_repr, value_measured) VALUES
  ('Fc1cccc(F)c1C1=Nc2cn[nH]c2-c2cc3c(cc2N1)OCO3', '10 to 100 nM'),
  ('Cc1ccc2c(c1)-c1[nH]ncc1N=C(c1c(F)cccc1F)N2', '100 to 1000 nM'),
  ('NC(=O)c1ccc2c(c1)N=C(c1c(F)cccc1F)Nc1cn[nH]c1-2', '< 10 nM'),
  ('Cc1ccc2c(c1)-c1[nH]ncc1NC(c1c(F)ccc(Br)c1Cl)=N2', '100 to 1000 nM'),
  ('Fc1cc2c(cc1-c1ccccc1)N=C(c1c(F)cccc1F)Nc1c[nH]nc1-2', '10 to 100 nM');

query: Could you share which IC50 value was measured for `Cc1ccc2c(c1)-c1[nH]ncc1NC(c1c(F)cccc1I)=N2` ?
result: 100 to 1000 nM

query: I have this compound here, `O=C(O)c1cc2c(cc1Cl)-c1[nH]ncc1N=C(c1c(F)cccc1F)N2` , and I need its recorded IC50.
result: 10 to 100 nM

query: Can you look up the measured IC50 of `COc1ccc2c(c1F)N=C(c1c(F)cccc1F)Nc1cn[nH]c1-2` for me?
result: 10 to 100 nM

// data source = patent US20220380374A1
